Recorded values, source patent US20030211537A1.

# Tested System: T1, rat µ opioid receptor (rat), P33535
# T1 chain: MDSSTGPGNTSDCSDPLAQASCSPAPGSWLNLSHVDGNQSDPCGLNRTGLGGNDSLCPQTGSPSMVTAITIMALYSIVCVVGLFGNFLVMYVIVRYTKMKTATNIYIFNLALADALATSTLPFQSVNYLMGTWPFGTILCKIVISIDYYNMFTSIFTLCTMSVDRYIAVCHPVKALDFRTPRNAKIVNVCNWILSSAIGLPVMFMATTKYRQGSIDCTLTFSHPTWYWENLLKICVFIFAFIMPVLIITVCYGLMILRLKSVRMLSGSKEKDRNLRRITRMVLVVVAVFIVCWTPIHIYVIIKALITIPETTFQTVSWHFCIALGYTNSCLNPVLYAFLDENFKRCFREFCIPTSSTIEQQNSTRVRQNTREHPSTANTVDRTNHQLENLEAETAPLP
# Test Method Notes: competition vs [3H]DAMGO, COS-7 membranes
Experimental Endpoint: Ki (nM)
Numbers only, in nM.

The measured Ki associated with YAGFL (modifications not checked) [DADL] reads 16

Now consider the entry below.
Ki measured on YAGFG (modifications not checked) [[D-Ala2,MePhe4,Gly-ol5]enkephalin (DAMGO)] = 2
